Each entry below lists one item and its recorded composite z-score value.
Test system: Sonic hedgehog protein (Shh)
Test protocol: small-molecule binders of Shh protein, primary screen, biochemical, small-molecule microarray, 635/667 nm fluorescence (AID 1151);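 also: Shh protein binding to compounds spotted on small-molecule microarray slides; score combines spot fluorescence intensity with signal-to-noise across triplicate slides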
Condition set: small-molecule microarray binding, 635 nm fluorescence; higher = more signal
API doc: respond with a numeric literal and nothing else, no unit.

Enquiry: Param item = NCCCC[C@@H]1NC(=O)[C@H]2C[C@@H](C(=O)NCc3ccc(F)cc3)[C@@H](c3ccc(O)cc3)N2C1=O ; retrieve measured composite z-score.
Return: 1.11

---

Test protocol: E. coli growth modulation, two-sided OD650, primary screen, E. coli filamentation project, strain DRC41, 24 h (AID 1093);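 also: MC1000 strain lacking acrAB efflux and sulA so SOS filamentation is blocked; test concentration not given here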
Condition set: OD650, 24 h, higher = more signal, called active from +8 up or from −8 down
z-score values by entry
I only need the number, thanks.

Reference set, count: 2
• C=CCC(OC(C)=O)[C@@H]1[C@@H](N(Cc2ccc(-c3ccccc3)cc2)C(=O)c2ccc(-c3ccccc3)cc2)c2cc(OCCCO)ccc2N1C(=O)c1ccc2ccccc2n1 (stereo partly drawn) = 0.853
• COCCOC(=O)N1C(=O)[C@@]2(c3cc(C#CCC(C(=O)OC)C(=O)OC)ccc31)[C@H](C(=O)N1CCc3cc(OC)c(OC)cc3C1)[C@H]1C(=O)O[C@H](c3ccccc3)[C@H](c3ccccc3)N1[C@@H]2c1ccc(O)cc1 = 0.204

Shift focus to the following entry.
Enquiry: Which value of z-score has been reported for CCCCC(=C=CC[C@@H](O)c1cccc(OCCO)c1)C[C@@H](O)COCc1ccccc1 in the records?
Return: 1.84

---

Test protocol: anti-His antibody binders, primary screen, artefact control for SMM control protein annotation, biochemical, small-molecule microarray, 635 nm fluorescence (AID 1128);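 also: score merges feature fluorescence with signal-to-noise for each printed compound spot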
Condition set: anti-His Alexa647 antibody binding, higher = more signal
Let's look at some compounds and their measured composite z-score.
# print the numeric value only

- CC(C)C[C@@H]1NC(=O)[C@@]23C(=O)N[C@@H](Cc4ccccc4)C2[C@H](C)[C@@]2(C)O[C@H]2C3/C=C/C/C=C\CNC(=O)[C@@H](CC(C)C)NC1=O (stereo partly specified): 0.455
- C=CCOC(=O)[C@H]1[C@@H]2C(=O)O[C@@H](c3ccccc3)[C@@H](c3ccccc3)N2[C@@H](c2ccc(OCCOC(=O)[C@@H]3C[C@@H]4C(=O)N[C@@H](CC(C)C)C(=O)N4[C@@H]3c3ccc(O)cc3)cc2)[C@]12C(=O)Nc1ccc(I)cc12: 0.785
- COC(=O)C(CC#Cc1ccc2c(c1)[C@]1(C(=O)N2)[C@H](c2ccc(O)cc2)N2[C@H](c3ccccc3)[C@H](c3ccccc3)OC(=O)[C@H]2[C@@H]1C(=O)N1CCc2cc(OC)c(OC)cc2C1)C(=O)OC: 1.54
- COc1ccc(CC[C@H](O)c2cccc(OCC(=O)OC(C)(C)C)c2)cc1: 0.697
- C=CC[C@]1(C(=O)N(C)C)COC(c2ccc(OCCCO)cc2)=N1: 3.41

Now examine the next entry.
Enquiry: Sample CC(C)C(=C=CC[C@@H](O)c1cccc(OCCO)c1)CCO — what was its composite z-score?
Return: 0.241

---

Assayed target: Fibroblast growth factor 10 (Homo sapiens) (UniProt O15520)
Sequence (O15520 whole entry, looked up): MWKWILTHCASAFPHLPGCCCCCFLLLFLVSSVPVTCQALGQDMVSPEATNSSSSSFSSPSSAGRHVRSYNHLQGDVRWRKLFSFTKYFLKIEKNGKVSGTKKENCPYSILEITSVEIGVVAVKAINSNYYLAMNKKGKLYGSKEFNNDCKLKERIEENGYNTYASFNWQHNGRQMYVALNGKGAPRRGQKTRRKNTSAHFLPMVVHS
Test protocol: FGF10 binders on small-molecule microarrays, primary screen, biochemical, small-molecule microarray, 635 nm fluorescence (AID 1102)
Condition set: FGF10 binding, fluorescence 635 nm, higher = more signal
Outcome label depends on composite z-score relative to 0.7: at/above gives rule met, below gives rule not met.

Some entries whose results are on file:
* CC(C)[C@@H](C(=O)O)n1cc(-c2ccccc2)nn1 | rule met
* C=CC[C@@]1(C(=O)N(C)C)N=C(c2ccc(OCCCO)cc2)O[C@@H]1c1ccccc1 | rule met
* [N-]=[N+]=NCc1ccccc1[C@H]1OC(c2ccc(OCCCO)cc2)=N[C@@]1(Cc1ccccc1)C(=O)N1CCOCC1 | rule met

Enquiry: Decide: composite z-score of CC#CCO[Si](C#CCCCCCC)(C(C)C)C(C)C >= 0.7?
Return: rule not met

Enquiry: Assess whether reported composite z-score for C=CCC(OC(C)=O)[C@@H]1[C@@H](N(Cc2cc3ccccc3o2)C(=O)c2ccc(-c3ccccc3)cc2)c2cc(OCCCO)ccc2N1C(=O)c1ccc2ccccc2n1 (stereo not given in full) sits at 0.7 or higher.
Return: rule not met

Enquiry: Hi, just wondering whether COCCOC(=O)N1C(=O)[C@@]2(c3cc(C#Cc4ccc(OC)cc4)ccc31)[C@H](C(=O)N1CCCCCCC1)[C@H]1C(=O)O[C@H](c3ccccc3)[C@H](c3ccccc3)N1[C@@H]2c1ccccc1OCCO shows composite z-score of 0.7 or higher.
Return: rule met

Enquiry: Hi, just wondering whether Cc1c(-c2ccc(-c3ccc(Cl)c(Cl)c3)o2)nc(-c2ccccc2)c2c1CO[Si]2(C(C)C)C(C)C shows composite z-score of 0.7 or higher.
Return: rule not met

Enquiry: For this molecule, is measured composite z-score 0.7 or higher? COCCOC(=O)N1C(=O)[C@@]2(c3ccccc31)[C@H](C(N)=O)[C@H]1C(=O)O[C@H](c3ccccc3)[C@H](c3ccccc3)N1[C@@H]2c1ccc(OCCO)cc1
Return: rule met

Enquiry: Please indicate if the recorded composite z-score for COC(=O)[C@@]1(Cc2ccc(F)cc2)[C@H]2c3cc(C(=O)N(C)C)n(CCO)c3C[C@H]2CN1C(=O)c1ccccc1 meets or exceeds 0.7.
Return: rule met

Enquiry: Given the entry CO[C@H]1O[C@H](CO)[C@@H](OC(=O)Nc2ccc(C(F)(F)F)cc2)[C@H](OC(=O)Nc2ccccc2-c2ccccc2)[C@@H]1OC(=O)Nc1ccccc1-c1ccccc1 , answer whether its composite z-score meets or surpasses 0.7.
Return: rule met
